- Tested on: NCI-H1563
- assay-overview: relative viability (nuclei count vs DMSO), 5 days (fraction); higher = more cells survive
- settings: first compound 0.2 µM
Documented relative viability across a set of molecules

- molecule: "CCNC(=O)c1noc(-c2cc(C(C)C)c(O)cc2O)c1-c1ccc(CN2CCOCC2)cc1 [Luminespib] + N=C(N)NC(=N)NCCc1ccccc1 [Phenformin] (partner 250 µM)"
  relative viability: 0.465
- molecule: "Cc1csc(=NC2CCCCC2)n1/N=C/c1ccc(O)c(O)c1O [MIM1] + COc1cccc2cc(-c3nc([C@H]4CC[C@H](C(=O)O)CC4)n4ncnc(N)c34)[nH]c12 [OSI-027] (partner 0.5 µM)"
  relative viability: 0.725
- molecule: "Cc1csc(=NC2CCCCC2)n1/N=C/c1ccc(O)c(O)c1O [MIM1] + Cc1nc(NC(=O)N2CCC[C@H]2C(N)=O)sc1-c1ccnc(C(C)(C)C(F)(F)F)c1 [Alpelisib] (partner 2 µM)"
  relative viability: 0.95
- molecule: "CCNC(=O)c1noc(-c2cc(C(C)C)c(O)cc2O)c1-c1ccc(CN2CCOCC2)cc1 [Luminespib] + C[C@@H](Oc1cc(-c2cnn(C3CCNCC3)c2)cnc1N)c1c(Cl)ccc(F)c1Cl [Crizotinib] (partner 1 µM)"
  relative viability: 0.536
- molecule: "Cc1csc(=NC2CCCCC2)n1/N=C/c1ccc(O)c(O)c1O [MIM1] + CC(C)C[C@H](NC(=O)[C@H](Cc1ccccc1)NC(=O)c1cnccn1)B(O)O [Bortezomib] (partner 0.002 µM)"
  relative viability: 0.894

###

- Tested on: LU99A
- assay-overview: relative viability (nuclei count vs DMSO), 5 days (fraction); higher = more cells survive
- settings: first compound 0.6325 µM
In this section, each of the molecules is paired with its reported relative viability.

- molecule: "Cc1csc(=NC2CCCCC2)n1/N=C/c1ccc(O)c(O)c1O [MIM1] + C[C@@H](Oc1cc(-c2cnn(C3CCNCC3)c2)cnc1N)c1c(Cl)ccc(F)c1Cl [Crizotinib] (partner 1 µM)"
  relative viability: 0.538
- molecule: "CN1CCN(CCOc2cc(OC3CCOCC3)c3c(Nc4c(Cl)ccc5c4OCO5)ncnc3c2)CC1 [Saracatinib] + CS(=O)(=O)N1CCN(Cc2cc3nc(-c4cccc5[nH]ncc45)nc(N4CCOCC4)c3s2)CC1 [Pictilisib] (partner 1 µM)"
  relative viability: 0.309
- molecule: "CN1CCN(CCOc2cc(OC3CCOCC3)c3c(Nc4c(Cl)ccc5c4OCO5)ncnc3c2)CC1 [Saracatinib] + Nc1ncn([C@H]2C[C@H](O)[C@@H](CO)O2)c(=O)n1 [Decitabine] (partner 2 µM)"
  relative viability: 0.678

###

- Test system: NCI-H1355
- assay-overview: relative viability (nuclei count vs DMSO), 5 days (fraction); higher = more cells survive
- settings: first compound 0.2 µM
endpoint-label: relative viability

- compound: "Cc1csc(=NC2CCCCC2)n1/N=C/c1ccc(O)c(O)c1O [MIM1] + NC(=O)Nc1cc(-c2cccc(F)c2)sc1C(=O)N[C@H]1CCCNC1 [AZD7762] (partner 0.2 µM)"
  endpoint-label: "relative viability"
  reported-result: 0.802
- compound: "Cc1csc(=NC2CCCCC2)n1/N=C/c1ccc(O)c(O)c1O [MIM1] + CC(=O)Nc1cccc(-n2c(=O)n(C3CC3)c(=O)c3c(Nc4ccc(I)cc4F)n(C)c(=O)c(C)c32)c1 [Trametinib] (partner 0.02 µM)"
  endpoint-label: "relative viability"
  reported-result: 0.419
- compound: "Cc1csc(=NC2CCCCC2)n1/N=C/c1ccc(O)c(O)c1O [MIM1] + C[C@]1(O)C[C@@H](c2nc(-c3ccc4ccc(-c5ccccc5)nc4c3)c3c(N)nccn32)C1 [Linsitinib] (partner 1 µM)"
  endpoint-label: "relative viability"
  reported-result: 0.812
